biological target: NA transporter (Rattus norvegicus, UniProt Q9WTR4); construct: synaptosomes were freshly isolated from rat brain regions; from tissue; host or cells: rat hypothalamus synaptosomes (P2 fraction); test: Noradrenaline reuptake inhibition (NA uptake inhibition) in rat brain synaptosomes; type: biochemical; conditions: test concentration of 10^−5 M; synaptosomes (P2 fraction) from the hypothalamus of male rat brains
Sequence (Q9WTR4 1-597): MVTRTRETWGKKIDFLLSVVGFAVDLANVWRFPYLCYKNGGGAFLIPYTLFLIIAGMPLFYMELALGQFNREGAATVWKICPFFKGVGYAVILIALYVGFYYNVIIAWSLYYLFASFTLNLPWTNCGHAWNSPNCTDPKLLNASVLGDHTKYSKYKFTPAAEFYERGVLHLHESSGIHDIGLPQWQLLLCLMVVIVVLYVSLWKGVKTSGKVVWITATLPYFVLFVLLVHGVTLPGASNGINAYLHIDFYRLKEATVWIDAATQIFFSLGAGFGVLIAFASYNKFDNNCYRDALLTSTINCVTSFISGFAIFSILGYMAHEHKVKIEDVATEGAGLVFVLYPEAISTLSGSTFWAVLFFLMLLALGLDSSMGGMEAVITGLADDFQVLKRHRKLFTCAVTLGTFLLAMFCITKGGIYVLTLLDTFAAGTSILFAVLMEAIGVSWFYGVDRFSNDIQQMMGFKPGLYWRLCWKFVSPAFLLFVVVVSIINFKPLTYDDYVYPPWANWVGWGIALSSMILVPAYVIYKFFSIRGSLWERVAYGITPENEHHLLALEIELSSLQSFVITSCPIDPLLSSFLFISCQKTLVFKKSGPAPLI
The class of a record is decided solely by its measured inhibition at 10 µM; consult bin A = under 60%, bin B = from 60% up to 80%, bin C = 80% and over

Answered cases to consult:
COc1ccc(C2(O)CCCCC2CN2CCCCCC2)cc1 (stereo not shown)    bin A
CCC(O)(C#Cc1ccccc1)C(C)CN1CCCC1 (stereo not shown)    bin B

## Task Which bin should I file Cc1cccc(C2(O)CCCCCC2CN2CCCC2)c1 (stereo not shown) under?
## Result bin B

## Task Which bin should I file Cc1ccc(C2(O)CCCC2CN2CCCCCC2)cc1 (stereo not shown) under?
## Result bin B

## Task Which bin should I file OC1(c2cccc(Cl)c2Cl)CCCC1CN1CCCC1 (stereo not shown) under?
## Result bin A

## Task Which bin should I file OC1(CCc2ccccc2)CCCC1CN1CCCCCC1 (stereo not shown) under?
## Result bin C

## Task Which bin should I file Cc1ccc(C2(O)CCCCCC2CN2CCCC2)cc1 (stereo not shown) under?
## Result bin B

## Task Which bin should I file OC1(CCCc2ccccc2)CCCC1CN1CCCC1 (stereo not shown) under?
## Result bin B

* * *

biological target: NA transporter (Rattus norvegicus, UniProt Q9WTR4); construct: synaptosomes were freshly isolated from rat brain regions; from tissue; host or cells: rat hypothalamus synaptosomes (P2 fraction); test: Noradrenaline reuptake inhibition (NA uptake inhibition) in rat brain synaptosomes; format: biochemical; conditions: test concentration of 10^−5 M; synaptosomes (P2 fraction) from the hypothalamus of male rat brains
endpoint: inhibition at 10 µM
Provide the measurement as a number trailed by its unit.

Consider the worked cases shown below.
Cc1cc(C2(O)CCCCC2CN2CCCCCC2)ccc1F (stereo not drawn)    54%
Cc1cccc(C2(O)CCCC2CN2CCCC2)c1 (stereo not drawn)    52%
OC1(CCc2ccccc2)CCCCCC1CN1CCCC1 (stereo not drawn)    82%
OC1(c2ccc(Cl)cc2Cl)CCCCCC1CN1CCCC1 (stereo not drawn)    55%
OC1(c2ccccc2)CCCCCC1CN1CCCCCC1 (stereo not drawn)    52%
Cc1cc(C2(O)CCCC2CN2CCCCCC2)ccc1F (stereo not drawn)    73%
OC1(c2cccc(Cl)c2Cl)CCCCC1CN1CCCC1 (stereo not drawn)    60%
OC1(c2cccs2)CCCC1CN1CCCCCC1 (stereo not drawn)    51%
OC1(c2ccc(Cl)cc2)CCCC1CN1CCCC1 (stereo not drawn)    75%
COc1ccc(C2(O)CCCCCC2CN2CCCCCC2)cc1 (stereo not drawn)    58%

Parameter requested: inhibition at 10 µM. Apply to each item below.
1. OC1(CCCc2ccccc2)CCCCC1CN1CCCCCC1 (stereo not drawn)
2. OC1(c2ccc(F)cc2)CCCCCC1CN1CCCC1 (stereo not drawn)
3. Cc1cccc(C2(O)CCCC2CN2CCCCCC2)c1 (stereo not drawn)
4. OC1(CCc2ccccc2)CCCC1CN1CCCC1 (stereo not drawn)
5. COc1ccc(C2(O)CCCC2CN2CCCCCC2)cc1 (stereo not drawn)

## Result
1: 77%; 2: 57%; 3: 59%; 4: 59%; 5: 58%

Parameter requested: inhibition at 10 µM. Apply to each item below.
1. Cc1ccc(C2(O)CCCCCC2CN2CCCCCC2)cc1 (stereo not drawn)
2. OC1(CCCc2ccccc2)CCCC1CN1CCCCCC1 (stereo not drawn)
3. OC1(c2ccc(F)cc2)CCCCC1CN1CCCCCC1 (stereo not drawn)
4. OC1(CCc2ccccc2)CCCCCC1CN1CCCCCC1 (stereo not drawn)
5. OC1(c2ccccc2)CCCCCC1CN1CCCC1 (stereo not drawn)
6. COc1ccc(C2(O)CCCCCC2CN2CCCC2)cc1 (stereo not drawn)

## Result
1. 58%
2. 59%
3. 52%
4. 87%
5. 56%
6. 69%

Parameter requested: inhibition at 10 µM. Apply to each item below.
1. OC1(c2ccc(Cl)cc2)CCCC1CN1CCCCCC1 (stereo not drawn)
2. Cc1cc(C2(O)CCCC2CN2CCCC2)ccc1F (stereo not drawn)

## Result
1. 80%
2. 59%
